Target: Mtb NDH-2 (Mycobacterium tuberculosis, UniProt P95160)
Sequence (P95160 whole entry): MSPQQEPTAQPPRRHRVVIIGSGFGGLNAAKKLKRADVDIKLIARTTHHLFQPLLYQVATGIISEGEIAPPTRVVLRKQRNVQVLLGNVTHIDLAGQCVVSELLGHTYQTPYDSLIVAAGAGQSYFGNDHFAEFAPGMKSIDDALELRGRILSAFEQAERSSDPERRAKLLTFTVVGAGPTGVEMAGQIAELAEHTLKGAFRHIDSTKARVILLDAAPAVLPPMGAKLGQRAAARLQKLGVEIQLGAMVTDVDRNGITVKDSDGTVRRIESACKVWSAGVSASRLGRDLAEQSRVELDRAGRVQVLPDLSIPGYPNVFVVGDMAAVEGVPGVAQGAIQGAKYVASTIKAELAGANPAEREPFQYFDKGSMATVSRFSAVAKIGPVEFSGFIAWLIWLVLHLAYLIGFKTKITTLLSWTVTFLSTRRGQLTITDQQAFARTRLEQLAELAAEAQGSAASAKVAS
Type: biochemical
Settings: NADH-Q reductase; UQ0 and UQ1 as electron acceptors
pKi: −log10 of the molar value.
value.kind: pKi

Req: Bench note: what pKi did COc1c(O)c(C)c(C/C=C(\C)CCC=C(C)C)c(O)c1OC show?
Resp: 5.22 to 5.52

* * *

Target: UniProtKB P95160
Type: biochemical
Settings: soluble NDH-2; quinone as electron acceptor; ratio plot
I'd appreciate it if you could supply kcat values for the items below.
Answer format reminder: number followed by unit.

Req: Bench note: what kcat did COC1=C(OC)C(=O)C(CC=C(C)C)=C(C)C1=O show?
Resp: 500.0 ± 50 s^–1

Req: Bench note: what kcat did CC1=CC(=O)c2ccccc2C1=O show?
Resp: 400.0 ± 25 s^–1

Req: Bench note: what kcat did COC1=C(OC)C(=O)C(C)=CC1=O show?
Resp: 390 ± 70 s^–1

Req: Bench note: what kcat did COC1=C(OC)C(=O)C(C/C=C(\C)CCC=C(C)C)=C(C)C1=O show?
Resp: 1150.0 ± 350 s^–1
